hEPO values by entry
- System: hEPO
- run_description: Quantification of hEPO in serum after IV injection of mRNA (Human EPO ELISA)
- Assay type: in vivo
- particulars: Balb/c mice, 2.5 μg mRNA IV, serum after 6 hours
Non-standard residues stand in square brackets, D forms with d. Residues, ends and D or L forms follow the SMILES beside them. *: point of attachment. Gly(N-(3-decanoyloxypropyl)) = CCCCCCCCCC(=O)OCCCNCC(=O)O; Gly(N-(CH2)3O-octanoyl) = CCCCCCCC(=O)OCCCNCC(=O)O; Gly(N-3-morpholinopropyl) = O=C(O)CNCCCN1CCOCC1; N(2-ethylhexyl)Gly = CCCCC(CC)CNCC(=O)O; N(CH(CH2OH)2)Gly = O=C(O)CNC(CO)CO; NDecylGly = CCCCCCCCCCNCC(=O)O; For = O=C*
Give me the value, and tack the unit on after it.

These solved cases illustrate the format of a correct answer.
>  <compound>
CCCCCCCC(=O)OCCCN(CC(=O)N(CC(=O)N(CC(=O)N(CCCOC(=O)CCCCCCC)CC(=O)N(CC(N)=O)CC(CC)CCCC)CC(CC)CCCC)CC(CC)CCCC)C(=O)CN(CC(CC)CCCC)C(=O)CNC(CO)CO (stereo not drawn) [Compound 4] (H-[N(CH(CH2OH)2)Gly][N(2-ethylhexyl)Gly][Gly(N-(CH2)3O-octanoyl)][N(2-ethylhexyl)Gly][N(2-ethylhexyl)Gly][Gly(N-(CH2)3O-octanoyl)][N(2-ethylhexyl)Gly]-NH2)

>  <subject_of_test>
hEPO

>  <hEPO>
291 ng/mL

$$$$
>  <compound>
CCCCCCCC(=O)OCCCN(C=O)CC(=O)N(CCCOC(=O)CCCCCCC)CC(=O)N(CCc1ccccc1)CC(=O)N(CC(=O)N(CCCN1CCOCC1)CC(=O)N(CCCOC(=O)CCCCCCC)CC(=O)N(CCc1ccccc1)CC(=O)N(CCCOC(=O)CCCCCCC)CC(=O)N(CC(N)=O)CC(CC)CCCC)CC(CC)CCCC (stereo not drawn)

>  <subject_of_test>
hEPO

>  <hEPO>
13.4 ng/mL

$$$$

Okay, now this compound:
// hEPO lookup, compound = CCCCCCCCCCN(C=O)CC(=O)N(CCCOC(=O)CCCCCCCCC)CC(=O)N(CC(=O)N(CCCN1CCOCC1)CC(=O)N(CC(=O)N(CCCOC(=O)CCCCCCCCC)CC(=O)N(CCCCCCCCCC)CC(N)=O)CC(CC)CCCC)CC(CC)CCCC (stereo not drawn) [Compound 117] (For-[NDecylGly][Gly(N-(3-decanoyloxypropyl))][N(2-ethylhexyl)Gly][Gly(N-3-morpholinopropyl)][N(2-ethylhexyl)Gly][Gly(N-(3-decanoyloxypropyl))][NDecylGly]-NH2) , result: 685 ng/mL

###

- run_description: Delivery vehicle size and polydispersity by dynamic light scattering
- Format: physicochemical
- particulars: DLS in PBS; peptoid:DSPC:Cholesterol:DMG-PEG2000 weight ratio 20:1.79:7.16:1.84, mRNA
Starred links: 1 amine or outer side, 2 acyl side, 3 side chain; linkers in the order of their positions; H or OH if unused. Non-standard residues stand in square brackets, D forms with d. Residues, ends and D or L forms follow the SMILES beside them. *: point of attachment. Gly(N-(3-decanoyloxypropyl)) = CCCCCCCCCC(=O)OCCCNCC(=O)O; N(3-lauroyloxypropyl)Gly = CCCCCCCCCCCC(=O)OCCCNCC(=O)O; Gly(N-3-morpholinopropyl) = O=C(O)CNCCCN1CCOCC1; N(2-ethylhexyl)Gly = CCCCC(CC)CNCC(=O)O; X2 = CCCCCCC(CCCC)CN(CC(=O)[*:2])[*:1]; N(CH(CH2OH)2)Gly = O=C(O)CNC(CO)CO; NDecylGly = CCCCCCCCCCNCC(=O)O; For = O=C*
# PDI annotations
The reply should be a number, written without any unit.

// solved cases for PDI follow
>  <molecule>
CCCCCCCCCC(=O)OCCCN(CC(=O)N(CC(=O)N(CC(=O)N(CCCOC(=O)CCCCCCCCC)CC(=O)N(CC(N)=O)CC(CCCC)CCCCCC)CC(CC)CCCC)CC(CCCC)CCCCCC)C(=O)CN(CC(CC)CCCC)C(=O)CNC(CO)CO (stereo not drawn) [Compound 61] (H-[N(CH(CH2OH)2)Gly][N(2-ethylhexyl)Gly][Gly(N-(3-decanoyloxypropyl))][X2][N(2-ethylhexyl)Gly][Gly(N-(3-decanoyloxypropyl))][X2]-NH2)

>  <PDI>
0.081

$$$$
>  <molecule>
CCCCCCCCCCCC(=O)OCCCN(CC(=O)N(CC(=O)N(CC(=O)N(CCCOC(=O)CCCCCCCCCCC)CC(=O)N(CC(N)=O)CC(CC)CCCC)CC(CC)CCCC)CC(CC)CCCC)C(=O)CN(CC(CC)CCCC)C(=O)CNC(CO)CO (stereo not drawn) [Compound 6] (H-[N(CH(CH2OH)2)Gly][N(2-ethylhexyl)Gly][N(3-lauroyloxypropyl)Gly][N(2-ethylhexyl)Gly][N(2-ethylhexyl)Gly][N(3-lauroyloxypropyl)Gly][N(2-ethylhexyl)Gly]-NH2)

>  <PDI>
0.125

$$$$

Proceed to the following item.
The measured PDI associated with CCCCCCCCCCN(C=O)CC(=O)N(CCCOC(=O)CCCCCCCCC)CC(=O)N(CC(=O)N(CCCN1CCOCC1)CC(=O)N(CC(=O)N(CCCOC(=O)CCCCCCCCC)CC(=O)N(CCCCCCCCCC)CC(N)=O)CC(CC)CCCC)CC(CC)CCCC (stereo not drawn) [Compound 117] (For-[NDecylGly][Gly(N-(3-decanoyloxypropyl))][N(2-ethylhexyl)Gly][Gly(N-3-morpholinopropyl)][N(2-ethylhexyl)Gly][Gly(N-(3-decanoyloxypropyl))][NDecylGly]-NH2) reads 0.156
